System: A549 NSCLC
protocol summary: NCI tumour cell line growth inhibition, 48 h

molecule: NC(=S)N/N=C(/CC(=O)c1ccccc1)C(=O)Nc1ccc(Cl)c(Cl)c1
TGI: > 100 µM
--
molecule: CN(CCCN)CCCNc1nc2ccccc2c2[nH]c3ccccc3c12
TGI: 2.22 µM
--
molecule: Nn1c(CCCCCCCCc2nnc(COc3c(O)ccc4ccccc34)n2N)nnc1COc1c(O)ccc2ccccc12
TGI: > 100 µM
--
molecule: CSC1CC2C(CC1(C)O)C2(C)C (stereo unspecified)
TGI: > 100 µM
--
molecule: COc1cccc(-c2cc(=O)c3c(C)cc(C)nc3[nH]2)c1
TGI: > 100 µM
--
molecule: CC1(C)C(c2ccccc2)=[N+]([O-])C(C)(C)N1O
TGI: > 10 µM

---

System: MALME-3M melanoma
protocol summary: NCI tumour cell line growth inhibition, 48 h

compound: O=C(NC(Cc1c[nH]c2ccccc12)C(=O)O)/C(=C/c1ccccc1O)NC(=O)c1ccccc1 (centres undefined)
TGI: > 100 µM
--
compound: Cc1ccc(S(=O)(=O)N2CCSCCSCCSCCSCC2)cc1
TGI: > 100 µM
--
compound: Nc1cc2cccc[n+]2c2cc(Cl)ccc12
TGI: 11.7 µM
--
compound: C=C1C(O)C2(O)OCC34C(CC5C(C)=CC(=O)C(O)C5(C)C23)OC(=O)C(OC(=O)C/C=C(\C)CCCCC)C14 (centres undefined)
TGI: < 0.001 µM
--
compound: O=c1c2ncn(C3CC(O)C(CO)O3)c2nnn1Cc1ccccc1[N+](=O)[O-] (centres undefined)
TGI: > 100 µM
--
compound: CCSC1=CC(=O)c2nc3ccccc3c3ccnc1c23
TGI: 3.32 µM
--
compound: CC(C)NC[C@@H](C(=O)N1CCN(c2ncnc3c2[C@H](C)C[C@H]3O)CC1)c1ccc(Cl)cc1
TGI: > 76.7 µM
--
compound: COc1ccc2nc3cc([N+](=O)[O-])ccc3c(NCCCCCN(C)C)c2c1
TGI: 1.03 µM
--
compound: O=C(O)c1ccc([Se][Se]c2ccc(C(=O)O)cc2)cc1
TGI: 68.3 µM
--
compound: Cc1cc(N(CCC#N)S(=O)(=O)c2ccccc2)ccc1/C=C1N=C(/C=C/c2ccccc2)OC\1=O
TGI: > 100 µM
--
compound: Oc1ccc(-c2nnc3sc(-c4ccc(F)cc4)nn23)cc1
TGI: > 100 µM
--
compound: O=C(CN1CCCCC1)CC(O)(C(F)(F)F)C(F)(F)F
TGI: > 100 µM
--
compound: COc1ccc(Nc2nc3ccc(C(F)(F)F)cc3nc2C(=O)O)cc1OC
TGI: > 100 µM
--
compound: CC(C)(C)OC(=O)C#CC[C@H]1CCCC1/C=C/C(O)=C1/C(=O)NC(CCCNC(=O)OC(C)(C)C)C1=O (some centres undefined)
TGI: 57.6 µM

---

System: OVCAR-8 ovarian
protocol summary: NCI tumour cell line growth inhibition, 48 h; in the data active = GI50 below about 0.43 µM; inactive = the rest
Outcome codes: active, inactive

molecule: C[C@H](Nc1ncnc2nc[nH]c12)c1cc2cccc(Cl)c2c(=O)n1-c1ccccc1
label value: inactive

molecule: C=C1C(=O)O[C@H]2[C@H]1CC/C(COC(=O)NCc1ccccc1OC)=C\CC[C@@]1(C)O[C@@H]21
label value: inactive

molecule: COC(=O)[C@@H](C)C[C@H](Cc1ccccc1)NC(=O)c1nc([C@@H](C[C@H](C(C)C)N(C)C(=O)[C@@H](NC(=O)[C@H]2CCCCN2C)C(C)C)OC(C)=O)sc1C
label value: active

molecule: Cc1ccncc1.[O]=[Ge].[O]=[Ge].[O]=[Ge].[O]=[Ge].[O]=[Ge].[O]=[Ge][OH].[O]=[Ge][OH]
label value: inactive

molecule: Nc1cc2cccc[n+]2c2cc(Cl)ccc12
label value: inactive

molecule: COc1cc(Cl)cc(-c2nn(C(=O)NCCN3CCOCC3)cc2-c2ccncc2)c1
label value: inactive

molecule: COC(=O)/C=C/C=C(c1ccccc1)c1ccccc1
label value: inactive

molecule: N#Cc1cnc2cc(OC[C@H](O)CO)c(NC(=O)CC3CSSC3)cc2c1Nc1ccc(OCc2cccc(F)c2)c(Cl)c1
label value: inactive

molecule: Nc1c(C(=O)Nc2cccc([N+](=O)[O-])c2)sc2nc3c(cc12)C(O)CCC3 (stereo not given)
label value: inactive

molecule: CC/C=C\C=C/C(=O)N/C=C/CC1Cc2cccc(O)c2C(=O)O1 (stereo not given)
label value: inactive
